# System: HL-60(TB) leukemia
# RUN_DESCRIPTION: NCI tumour cell line growth inhibition, 48 h
METRIC_NAME: TGI

> print(dat)
                                   compound  metric.name    result
1  CCOC(=O)NC(=O)c1cn(C(CC)COC(=O)NCCCCCCNC(=O)OCC(CC)n2cc(C(=O)NC(=O)OCC)c(=O)[nH]c2=O)c(=O)[nH]c1=O (stereo not given)          TGI  > 100 µM
2  COc1cc2cc(Oc3ccc(NC(=O)c4cc(C(F)(F)F)cc(C(F)(F)F)c4)cc3)c(C)nc2cc1OC          TGI   > 50 µM
3  O=[N+]([O-])c1ccc(/C=C/c2cc(-c3ccccc3)nc3ccc4ccccc4c23)cc1          TGI  > 100 µM
4  COC(=O)C1C(O)C(C(=O)OC)C(C)N(C)C1C (stereo not given)          TGI  > 100 µM
5     Nc1nc(-c2ccc(Cl)c([N+](=O)[O-])c2)cs1          TGI  > 100 µM

* * *

# Tested on: NCI-H460 lung
# RUN_DESCRIPTION: NCI tumour cell line growth inhibition, 48 h
# Lookup of reported TGI keyed by entry
METRIC_NAME: TGI (µM)

> print(dat)
                                   compound  unit.text  comparator  result.number
1  Nc1cc(Br)c(-c2nnc(CCC(=O)c3nc4ccccc4[nH]3)o2)c(Br)c1         µM           =           20.1
2  COc1ccc(/C(C)=C(\c2ccc(OCCN3CCCCCC3)cc2)c2ccc(OC(=O)C3CCCCC3)cc2)cc1         µM           =            2.1
3      COc1ccc(-c2cnnn2-c2nonc2-n2cccc2)cc1         µM           =           11.6
4  CC(C(=O)N1C(=O)N(C(=O)C(C)C(O)c2ccccc2)C2CCCCC21)C(O)c1ccccc1 (stereo not given)         µM           >            100
5               S=c1[nH]c2ccc(Br)cc2c(=S)s1         µM           =           62.4

* * *

# Test system: OVCAR-4 ovarian
# RUN_DESCRIPTION: NCI tumour cell line growth inhibition, 48 h
METRIC_NAME: TGI

> print(dat)
                                   compound    system.tested    result
1  O=C(Oc1cc(=O)c(OC(=O)c2ccccc2)co1)c1ccccc1  OVCAR-4 ovarian  > 100 µM
2  CC(=O)Oc1cc(C(F)(F)F)ccc1C(=O)OC1(C)OC(=O)c2ccc(C(F)(F)F)cc2O1 (centres undefined)  OVCAR-4 ovarian  > 100 µM
3  NC(CC1=CS(=O)(=O)c2ccc(Cl)cc21)C(=O)O (centres undefined)  OVCAR-4 ovarian  > 100 µM
4          Nc1cc2c(cc1Br)[nH]c(=O)c1ccccc12  OVCAR-4 ovarian   38.5 µM

* * *

# System: MALME-3M melanoma
# RUN_DESCRIPTION: NCI tumour cell line growth inhibition, 48 h

MOLECULE	UNIT_TEXT	COMPARATOR	TGI
COC(C)(C)[C@@H](O)[C@H]1C[C@H](C)[C@@]2(CC[C@]3(C)[C@@H]2CC[C@@H]2[C@@]4(C)CC[C@@H](OC(C)=O)C(C)(C)[C@@H]4C[C@@H](OC4OC(COC(C)=O)C(O)C(O)C4O)[C@]23C)O1 (stereo partly drawn)	µM	=	23.4
ClC(Cl)=C1C(=C(Cl)Cl)C(Cl)(Cl)C1(Cl)Cl	µM	=	5.9
COC(=O)c1cc2c(o1)-c1nccc3c1c(nc1ccccc13)C2=O	µM	=	5.96
CC1=C2C(=C[C@H]3[C@]4(C)CCCC(C)(C)[C@H]4CC[C@]34O[C@H]24)OC1=O	µM	>	100
CC(C)(C)c1ccc2c(c1)S(=O)(=O)Nc1ccc(Cl)cc1NS(=O)(=O)c1cc(C(C)(C)C)ccc1OCCOCCOCCO2	µM	=	80
O=C(CNc1c(Cl)cccc1Cl)NC1C=Cc2ccc(S(=O)(=O)Nc3c(Cl)cccc3Cl)cc2C1=O (stereo not drawn)	µM	>	100
COc1cc2nc(-c3cccs3)oc(=O)c2cc1OC	µM	>	100
C#CCOc1cccc(Nc2ncnc3c(NC(=O)C=C)cccc23)c1	µM	=	52
N#CC(=Nc1ccccc1N(C(=O)c1ccccc1)C(=O)c1ccccc1)c1ccccc1	µM	>	100
Oc1[nH]c2ccc(Br)cc2c1N=NC(=S)Nc1ccc(F)cc1	µM	=	23.8
S=C(/N=c1\sc(Nc2ccc(Cl)cc2)nc2sc3c(c12)CCN(N1CCc2c(sc4nc(Nc5ccc(Cl)cc5)s/c(=N\C(=S)Nc5ccc(Cl)cc5)c24)C1)C3)Nc1ccc(Cl)cc1	µM	>	100
O=C(c1ccco1)c1c(C(F)(F)F)n([O-])c2ccc(C(F)(F)F)cc2[n+]1=O	µM	=	1.47
Nc1c(-c2ccccc2-c2c(N)[n+]([O-])c3ccccc3[n+]2[O-])[n+]([O-])c2ccccc2[n+]1[O-]	µM	>	100
CSC(=Nc1ccccc1)N(c1ccccc1)c1nc(=[N+](C)C)ss1	µM	=	22.6
CN(Cc1ccccc1)c1cc(=O)n(C)c(=O)[nH]1	µM	>	100
CC(C)CCC[C@@H](C)C1CCC2[C@@H]3CC=C4C[C@@H](C(=O)NCCN(C)C)CC[C@]4(C)C3CC[C@@]21C (stereo partly drawn)	µM	>	100
CNc1ncnc2c1cnn2COCC(O)CO (stereo not drawn)	µM	>	100
COC(=O)/C([Se]c1c(C)cc(C)cc1C)=C(/[Se]c1c(C)cc(C)cc1C)C(=O)OC	µM	>	100

* * *

# Test system: CCRF-CEM leukemia
# RUN_DESCRIPTION: NCI tumour cell line growth inhibition, 48 h
METRIC_NAME: TGI

> print(dat)
                                    compound    result
 1           ClCCN(CCCl)c1ccc(CNc2ccccc2)cc1  > 100 µM
 2  O=C1CC(C(O)(C(F)(F)F)C(F)(F)Cl)CCC1C(O)(C(F)(F)F)C(F)(F)Cl (stereo not given)   > 10 µM
 3  Nc1cc(Br)c(-c2nnc(CCC(=O)c3nc4ccccc4[nH]3)o2)c(Br)c1  > 100 µM
 4  CCNC(=O)/C(=C/c1ccc(OC)cc1)c1cc(OC)c(OC)c(OC)c1  > 100 µM
 5  O=c1ccn(C2OC(CO)C(P(=O)(O)O)C2O)c(=O)[nH]1 (stereo not given)  > 100 µM
 6  Cc1ccc(OCCOCCOCCOCCOc2ccc(C)n(O)c2=S)c(=S)n1O  > 100 µM
 7  O=C1NCCS(=O)(=O)N[C@@H](CC2=CC=CCC2)C(=O)N2CCCC12 (stereo not given in full)  > 100 µM
 8          COc1cc2nc(-c3cccs3)oc(=O)c2cc1OC  > 100 µM
 9  COc1ccc(CC2c3c(cc(OC)c(OC)c3OC)CCN2C)cc1OC (stereo not given)  > 100 µM
10  Cc1ccc([N+](=O)[O-])cc1N=NC(=O)NNc1cc([N+](=O)[O-])ccc1C   40.2 µM
11  CCOC(=O)NC(=O)c1cn(C2CCCCC2)c(=O)[nH]c1=O  > 100 µM
12  Cc1cc(Nc2nc(-c3cn(-c4ccc(Cl)cc4)nn3)nc3ccccc23)n[nH]1   > 50 µM
13  COc1cc(/C=C2\[C@H]3c4c(c(OC)c(C)c(OC)c4OC)CC(C(=O)N2Cc2ccccc2)N3C)c(OC)c(C)c1OC   42.5 µM
14  CCC1=CC2CN3Cn4c(c(COCc5c6n(c7ccccc57)CN5CC7C=C(CC)C5C6(C(=O)OC)C7)c5ccccc54)C(C(=O)OC)(C2)C13  > 100 µM
15  C[C@@H]1S[C@H](c2ccccc2F)N2Cc3ccccc3N=C12  > 100 µM
16  Cc1cn(-c2cc(C(=O)Nc3cccc(-n4ccc5c(NC(=O)c6ccccc6)nccc54)c3)cc(C(F)(F)F)c2)cn1   2.09 µM
17  CC(C)(C)c1ccc2c(c1)S(=O)(=O)Nc1ccc(Cl)cc1NS(=O)(=O)c1cc(C(C)(C)C)ccc1OCCOCCOCCO2  > 100 µM
18   CN(C(=O)c1ccc([N+](=O)[O-])cc1)c1ccccc1  > 100 µM
19  Cc1c(N2C(=O)C(Cl)C2c2ccc(Cl)cc2)c(=O)n(-c2ccccc2)n1C (stereo not given)  > 100 µM
20  COc1c(O)c2c3c(c(C)cc(O)c3c1O)C(=O)C(O)(C(C)(C)C(C)=O)C2=O (stereo not given)  > 100 µM

Reference source for all entries: PubChem BioAssay (NCI)
